target: Met kinase domain (GST fusion protein) (Homo sapiens); construct: Purified GST fusion protein containing the Met kinase domain; test: Met transphosphorylation assay (ELISA, poly(glu-tyr) substrate); type: biochemical; conditions: read-out: Met IC50;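 note: Cell-free ELISA with plate-bound poly(Glu:Tyr 4:1) phosphorylated by GST-fused Met kinase domain plus ATP and Mn2+, phosphotyrosine detected by anti-phosphotyrosine antibody with HRP and ABTS read-out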
Sequence (P08581 1078-1345 limits assumed): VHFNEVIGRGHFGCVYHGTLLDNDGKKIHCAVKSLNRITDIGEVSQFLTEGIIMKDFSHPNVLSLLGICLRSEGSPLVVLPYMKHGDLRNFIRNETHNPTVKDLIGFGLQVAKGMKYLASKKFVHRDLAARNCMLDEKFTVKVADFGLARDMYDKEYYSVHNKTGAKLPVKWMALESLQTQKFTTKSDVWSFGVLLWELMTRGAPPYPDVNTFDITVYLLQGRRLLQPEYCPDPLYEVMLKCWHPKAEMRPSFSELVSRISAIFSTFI
pIC50: −log10 of the molar value.
# maps each entry to its pIC50

Compound | Measurement target | pIC50
Nc1ncc(-c2ccc3[nH]c(C(=O)NCCN4CCOCC4)cc3c2)cc1OCc1c(Cl)cccc1Cl | Met kinase domain (GST fusion protein) (Homo sapiens) | 5.74
CC(Oc1nc(-c2cccc(C(=O)NC3CCN(C)CC3)c2)cnc1N)c1c(Cl)cccc1Cl (stereo not drawn) | Met kinase domain (GST fusion protein) (Homo sapiens) | 6.74
CC(Oc1nc(-c2cccc(C(=O)N3CC[C@H](N)C3)c2)cnc1N)c1c(Cl)ccc(F)c1Cl (stereo partly drawn) | Met kinase domain (GST fusion protein) (Homo sapiens) | 7.16
